TARGET SYSTEM: T1, cyno TF ECD-His (cTF-his) (monkey (cyno))
T1 construct: also called bio-cTF-his; monkey TF-His protein
T1 chain: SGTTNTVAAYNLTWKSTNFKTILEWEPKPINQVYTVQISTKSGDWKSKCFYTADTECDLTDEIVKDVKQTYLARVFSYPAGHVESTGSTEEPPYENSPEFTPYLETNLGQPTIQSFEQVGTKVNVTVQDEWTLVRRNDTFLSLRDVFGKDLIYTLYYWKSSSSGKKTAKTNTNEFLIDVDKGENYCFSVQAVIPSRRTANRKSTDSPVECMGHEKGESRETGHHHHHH
ASSAY: SPR Biacore T200, antibody on Protein A chip, TF-His as analyte, 1:1 model
READOUT TYPE: kon (M⁻¹ s⁻¹)
// note: answer is a bare numeric in M⁻¹ s⁻¹

Request: # input binder: hu67-4 (antibody, human IgG1, kappa, V domains shown) VH: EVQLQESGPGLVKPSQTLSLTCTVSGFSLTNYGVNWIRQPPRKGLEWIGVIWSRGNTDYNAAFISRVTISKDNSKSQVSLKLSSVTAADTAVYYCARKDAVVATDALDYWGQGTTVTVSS VL: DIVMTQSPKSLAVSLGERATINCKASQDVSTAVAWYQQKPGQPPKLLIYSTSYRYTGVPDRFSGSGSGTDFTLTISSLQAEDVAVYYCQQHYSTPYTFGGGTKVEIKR ; wanted: its kon
Result: 33700

Request: Suppose we examine the binder hu10H10-77 (antibody, V domains shown, H11+L9; Full-length IgG) VH: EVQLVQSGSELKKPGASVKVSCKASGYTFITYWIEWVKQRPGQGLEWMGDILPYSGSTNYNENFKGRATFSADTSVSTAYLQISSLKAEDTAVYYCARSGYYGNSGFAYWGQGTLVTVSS VL: DIQMTQSPSSLSASVGDRVTITCQSSQSLLSSGNQKNYLTWYQQKPGKAPKLLIYWASTRESGVPSRFSGSGSGTDFTLTISSLQPEDFATYYCQNDYTYPLTFGQGTKLEIK ; what kon value has been reported?
Result: 169000

Request: Which measured kon value corresponds to hu67-11 (antibody, human IgG1, kappa, V domains shown) VH: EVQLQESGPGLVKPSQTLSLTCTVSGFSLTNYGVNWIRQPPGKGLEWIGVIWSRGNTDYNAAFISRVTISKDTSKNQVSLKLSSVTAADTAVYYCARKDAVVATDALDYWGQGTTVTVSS VL: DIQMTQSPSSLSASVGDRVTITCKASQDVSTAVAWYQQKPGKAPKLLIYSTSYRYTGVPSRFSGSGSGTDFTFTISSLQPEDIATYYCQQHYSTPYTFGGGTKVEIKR ?
Result: 27100

Request: Request the reported kon associated with hu67-16 (antibody, human IgG1, kappa, V domains shown) VH: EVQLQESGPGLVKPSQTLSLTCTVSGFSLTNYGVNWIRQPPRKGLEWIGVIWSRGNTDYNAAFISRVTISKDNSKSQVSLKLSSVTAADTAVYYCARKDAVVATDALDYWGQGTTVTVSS VL: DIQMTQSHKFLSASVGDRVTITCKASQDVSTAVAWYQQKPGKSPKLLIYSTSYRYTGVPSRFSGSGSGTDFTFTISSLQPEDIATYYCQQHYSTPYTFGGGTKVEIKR
Result: 32200

Request: Any idea what kon was measured for hu67-3 (antibody, human IgG1, kappa, V domains shown) VH: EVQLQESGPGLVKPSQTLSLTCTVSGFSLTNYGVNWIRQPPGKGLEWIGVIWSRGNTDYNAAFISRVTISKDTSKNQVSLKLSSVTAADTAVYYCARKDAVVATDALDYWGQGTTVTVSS VL: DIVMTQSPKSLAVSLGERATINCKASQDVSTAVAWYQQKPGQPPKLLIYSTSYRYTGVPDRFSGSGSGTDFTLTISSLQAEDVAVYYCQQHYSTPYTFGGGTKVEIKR ?
Result: 31900
